# measured on: UniProtKB P00519
# test details: Caliper Mobility Shift kinase inhibition test
# Format: biochemical
# applied conditions: 100 nM; read-out: inhibitory rate on ABL1
quantity name: inhibition at 0.1 µM (%)

[[record]]
chemical_string = "COc1cc(N2CCN(C)CC2)ccc1Nc1ncc(C)c(Nc2ccc3cn[nH]c3c2)n1"
measured_on = "UniProtKB P00519"
quantity_name = "inhibition at 0.1 µM"
data_value = 78.8

[[record]]
chemical_string = "Cc1cnc(Nc2ccc(N3CCN(C)CC3)cc2)nc1Nc1ccc2c(C)n[nH]c2c1"
measured_on = "UniProtKB P00519"
quantity_name = "inhibition at 0.1 µM"
data_value = 85.2

[[record]]
chemical_string = "CCN1CCN(c2ccc(Nc3ncc(C)c(Nc4ccc5cn[nH]c5c4)n3)cc2OC)CC1"
measured_on = "UniProtKB P00519"
quantity_name = "inhibition at 0.1 µM"
data_value = 95.3


----------
# measured on: FGFR2 (Homo sapiens (Human))
# Sequence (P21802 22-821, species assumed): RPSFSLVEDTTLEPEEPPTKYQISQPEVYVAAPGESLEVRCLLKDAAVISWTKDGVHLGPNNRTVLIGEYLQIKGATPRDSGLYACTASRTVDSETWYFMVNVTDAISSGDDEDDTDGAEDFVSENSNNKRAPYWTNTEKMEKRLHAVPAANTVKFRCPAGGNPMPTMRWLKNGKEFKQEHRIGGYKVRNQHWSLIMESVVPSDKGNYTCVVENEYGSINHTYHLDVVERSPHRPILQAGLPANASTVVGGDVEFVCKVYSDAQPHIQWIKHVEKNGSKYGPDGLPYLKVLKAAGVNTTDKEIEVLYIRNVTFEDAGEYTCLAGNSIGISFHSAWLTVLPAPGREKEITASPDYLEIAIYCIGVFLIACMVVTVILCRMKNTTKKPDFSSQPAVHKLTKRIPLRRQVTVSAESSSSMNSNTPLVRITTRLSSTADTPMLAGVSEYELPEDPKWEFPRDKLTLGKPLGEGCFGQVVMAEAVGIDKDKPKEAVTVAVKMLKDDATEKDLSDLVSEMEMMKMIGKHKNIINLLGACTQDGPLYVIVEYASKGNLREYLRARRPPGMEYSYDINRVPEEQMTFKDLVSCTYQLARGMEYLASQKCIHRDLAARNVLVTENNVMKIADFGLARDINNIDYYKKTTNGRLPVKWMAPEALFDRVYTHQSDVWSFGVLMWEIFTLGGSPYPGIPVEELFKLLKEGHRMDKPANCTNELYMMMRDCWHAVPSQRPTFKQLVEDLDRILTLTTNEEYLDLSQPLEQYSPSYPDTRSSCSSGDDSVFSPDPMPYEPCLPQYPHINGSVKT
# test details: Caliper Mobility Shift kinase inhibition test
# Format: biochemical
Recorded IC50 for the following molecules
quantity name: IC50 (nM)

[[record]]
chemical_string = "Cc1cnc(Nc2ccc(N3CCC(N4CCN(C)CC4)CC3)cc2)nc1Nc1ccc2cn[nH]c2c1"
unit_string = "nM"
data_value = 89

[[record]]
chemical_string = "COc1cc(Nc2ncc(C)c(Nc3ccc4cn[nH]c4c3)n2)ccc1N1CCN(C)CC1"
unit_string = "nM"
data_value = 61


----------
# measured on: IKK β (Homo sapiens (Human), UniProt O14920)
# Sequence (O14920 whole entry, species assumed): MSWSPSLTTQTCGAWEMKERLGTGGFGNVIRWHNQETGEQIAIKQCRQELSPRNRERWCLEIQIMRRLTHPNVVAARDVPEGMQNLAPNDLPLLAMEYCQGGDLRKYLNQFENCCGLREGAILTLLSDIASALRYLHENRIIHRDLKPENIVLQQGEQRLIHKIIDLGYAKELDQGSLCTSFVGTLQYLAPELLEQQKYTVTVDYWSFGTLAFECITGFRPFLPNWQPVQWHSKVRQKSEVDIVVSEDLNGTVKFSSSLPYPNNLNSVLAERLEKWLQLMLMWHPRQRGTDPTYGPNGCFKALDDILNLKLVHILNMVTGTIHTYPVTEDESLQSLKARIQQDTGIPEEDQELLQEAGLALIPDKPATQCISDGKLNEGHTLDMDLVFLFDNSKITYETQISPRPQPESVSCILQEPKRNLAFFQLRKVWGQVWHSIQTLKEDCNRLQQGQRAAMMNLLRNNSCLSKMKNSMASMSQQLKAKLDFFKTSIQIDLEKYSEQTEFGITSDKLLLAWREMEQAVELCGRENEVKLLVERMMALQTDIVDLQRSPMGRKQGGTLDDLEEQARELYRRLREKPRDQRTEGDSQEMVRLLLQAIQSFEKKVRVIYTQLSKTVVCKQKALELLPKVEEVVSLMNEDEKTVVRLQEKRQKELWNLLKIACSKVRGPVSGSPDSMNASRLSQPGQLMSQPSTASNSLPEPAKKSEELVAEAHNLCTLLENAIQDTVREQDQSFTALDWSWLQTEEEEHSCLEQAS
pIC50: −log10 of the molar value.
Recorded pIC50 for the following compounds
quantity name: pIC50

[[record]]
chemical_string = "Cc1cnc(Nc2ccc(N3CCN(C)CC3)cc2)nc1Nc1ccc2cn[nH]c2c1"
quantity_name = "pIC50"
limit_sign = "="
data_value = 6.23

[[record]]
chemical_string = "Cc1cnc(Nc2ccc(N3CCC(F)(F)CC3)cc2)nc1Nc1ccc2cn[nH]c2c1"
quantity_name = "pIC50"
limit_sign = "<"
data_value = 6.00

[[record]]
chemical_string = "Cc1cnc(Nc2ccc(C(=O)NCCN3CCOCC3)cc2)nc1Nc1ccc2cn[nH]c2c1"
quantity_name = "pIC50"
limit_sign = "="
data_value = 6.74

[[record]]
chemical_string = "Cc1cnc(Nc2ccc(N3CCC(N4CCN(C)CC4)CC3)cc2)nc1Nc1ccc2cn[nH]c2c1"
quantity_name = "pIC50"
limit_sign = "<"
data_value = 6.00

[[record]]
chemical_string = "COc1cc(Nc2ncc(C)c(Nc3ccc4cn[nH]c4c3)n2)ccc1N1CCN(C)CC1"
quantity_name = "pIC50"
limit_sign = "<"
data_value = 6.00


----------
pIC50: −log10 of the molar value.
Notes on pIC50 obtained with ALK (Homo sapiens (Human)).
Sequence (Q9UM73 19-1620, species assumed): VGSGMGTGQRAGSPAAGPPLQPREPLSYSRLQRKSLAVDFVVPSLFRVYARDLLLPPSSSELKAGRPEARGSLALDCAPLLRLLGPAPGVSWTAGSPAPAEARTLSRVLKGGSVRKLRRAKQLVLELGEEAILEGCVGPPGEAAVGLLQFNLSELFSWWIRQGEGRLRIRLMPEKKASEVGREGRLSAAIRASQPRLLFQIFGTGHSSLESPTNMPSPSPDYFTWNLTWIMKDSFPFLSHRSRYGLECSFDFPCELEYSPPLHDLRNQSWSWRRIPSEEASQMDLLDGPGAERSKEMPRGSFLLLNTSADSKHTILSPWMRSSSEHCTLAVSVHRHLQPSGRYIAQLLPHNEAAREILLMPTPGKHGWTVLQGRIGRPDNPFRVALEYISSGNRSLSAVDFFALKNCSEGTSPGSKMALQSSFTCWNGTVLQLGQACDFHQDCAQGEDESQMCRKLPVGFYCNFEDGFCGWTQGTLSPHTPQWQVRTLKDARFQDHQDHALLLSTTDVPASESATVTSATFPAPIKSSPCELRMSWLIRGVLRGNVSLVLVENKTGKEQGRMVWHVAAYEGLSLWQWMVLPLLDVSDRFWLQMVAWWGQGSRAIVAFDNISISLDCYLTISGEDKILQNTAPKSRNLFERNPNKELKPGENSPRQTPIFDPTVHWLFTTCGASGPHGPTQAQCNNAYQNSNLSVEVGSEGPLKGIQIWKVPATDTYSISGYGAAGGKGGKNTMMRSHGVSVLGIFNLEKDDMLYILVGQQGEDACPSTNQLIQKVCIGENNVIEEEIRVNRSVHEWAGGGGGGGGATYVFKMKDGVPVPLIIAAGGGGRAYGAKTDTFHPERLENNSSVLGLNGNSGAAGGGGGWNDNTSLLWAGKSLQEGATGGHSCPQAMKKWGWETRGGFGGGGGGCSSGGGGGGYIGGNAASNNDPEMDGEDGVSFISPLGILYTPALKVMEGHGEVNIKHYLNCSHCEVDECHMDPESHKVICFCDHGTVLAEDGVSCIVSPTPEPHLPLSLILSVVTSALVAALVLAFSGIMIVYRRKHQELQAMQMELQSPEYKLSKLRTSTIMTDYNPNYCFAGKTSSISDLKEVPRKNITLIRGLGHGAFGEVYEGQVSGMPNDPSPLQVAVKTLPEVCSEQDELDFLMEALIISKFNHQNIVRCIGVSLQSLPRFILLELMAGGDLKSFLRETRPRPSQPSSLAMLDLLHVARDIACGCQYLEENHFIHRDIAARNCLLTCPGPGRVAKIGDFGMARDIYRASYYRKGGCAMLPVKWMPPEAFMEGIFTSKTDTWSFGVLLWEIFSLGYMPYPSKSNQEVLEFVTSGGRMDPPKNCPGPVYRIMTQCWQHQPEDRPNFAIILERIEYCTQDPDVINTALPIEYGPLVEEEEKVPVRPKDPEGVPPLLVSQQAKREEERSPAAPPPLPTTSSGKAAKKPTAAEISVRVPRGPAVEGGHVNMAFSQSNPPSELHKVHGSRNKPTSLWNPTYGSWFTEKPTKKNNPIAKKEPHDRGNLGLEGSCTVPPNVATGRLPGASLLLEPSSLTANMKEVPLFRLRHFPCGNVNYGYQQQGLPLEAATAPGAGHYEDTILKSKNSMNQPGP
quantity name: pIC50

[[record]]
molecule = "Cc1cnc(Nc2ccc(N3CCC(N4CCN(C)CC4)CC3)cc2)nc1Nc1ccc2cn[nH]c2c1 [Compound 6j]"
data_value = 7.64

[[record]]
molecule = "Cc1cnc(Nc2ccc(N3CCC(F)(F)CC3)cc2)nc1Nc1ccc2cn[nH]c2c1 [Compound 6c]"
data_value = 6.32

[[record]]
molecule = "CCN1CCN(c2ccc(Nc3ncc(C)c(Nc4ccc5cn[nH]c5c4)n3)c(OC)c2)CC1 [Compound 6h]"
data_value = 8.24

[[record]]
molecule = "Cc1cnc(Nc2ccc(N3CCN(C)CC3)cc2)nc1Nc1ccc2cn[nH]c2c1 [Compound 6g]"
data_value = 7.59

[[record]]
molecule = "COc1cc(Nc2ncc(C)c(Nc3ccc4cn[nH]c4c3)n2)ccc1N1CCN(C)CC1 [Compound 6f]"
data_value = 7.96

[[record]]
molecule = "CCN1CCN(c2ccc(Nc3ncc(C)c(Nc4ccc5cn[nH]c5c4)n3)cc2OC)CC1 [Compound 6i]"
data_value = 8.30


----------
# measured on: ABL1 (Homo sapiens (Human))
# test details: Caliper Mobility Shift kinase inhibition test
# Type: biochemical
# applied conditions: 100 nM; read-out: inhibitory rate on ABL1
quantity name: inhibition at 0.1 µM (%)

[[record]]
compound = "Cc1cnc(Nc2ccc(N3CCN(C)CC3)cc2)nc1Nc1ccc2c(cnn2C)c1 [Compound 5c]"
data_value = 58.9

[[record]]
compound = "CN1CCN(c2ccc(Nc3ncc(F)c(Nc4ccc5cn[nH]c5c4)n3)cc2)CC1 [Compound 3a]"
data_value = 90.4

[[record]]
compound = "COc1cc(Nc2ncc(C)c(Nc3ccc4cn[nH]c4c3)n2)ccc1N1CCN(C)CC1 [Compound 6f]"
data_value = 98

[[record]]
compound = "CN1CCN(c2ccc(Nc3nc(Nc4ccc5cn[nH]c5c4)cc(C(F)(F)F)n3)cc2)CC1 [Compound 3g]"
data_value = 6.9

[[record]]
compound = "Cc1cnc(Nc2ccc(N3CCNCC3)cc2)nc1Nc1ccc2cn[nH]c2c1 [Compound 6b]"
data_value = 91.2

[[record]]
compound = "CCN1CCN(c2ccc(Nc3ncc(C)c(Nc4ccc5cn[nH]c5c4)n3)c(OC)c2)CC1 [Compound 6h]"
data_value = 87.5

[[record]]
compound = "Cc1cnc(Nc2ccc(N3CCS(=O)(=O)CC3)cc2)nc1Nc1ccc2cn[nH]c2c1 [Compound 6d]"
data_value = 59.6

[[record]]
compound = "COc1cc(N2CCC(N3CCN(C)CC3)CC2)ccc1Nc1ncc(C)c(Nc2ccc3cn[nH]c3c2)n1 [Compound 6k]"
data_value = 47.5

[[record]]
compound = "CCOC(=O)c1cnc(Nc2ccc(N3CCN(C)CC3)cc2)nc1Nc1ccc2cn[nH]c2c1 [Compound 3f]"
data_value = 4.3

[[record]]
compound = "Cc1cnc(Nc2ccc(N3CCN(C)CC3)cc2)nc1Nc1ccc2cn[nH]c2c1 [Compound 3d]"
data_value = 95.2

[[record]]
compound = "Cc1cnc(Nc2ccc(N3CCN(C)CC3)cc2)nc1Nc1ccc2c(c1)CCC2 [Compound 5h]"
data_value = 80.2

[[record]]
compound = "Cc1cnc(Nc2ccc(N3CCN(C)CC3)cc2)nc1Nc1ccc2cnn(C)c2c1 [Compound 5k]"
data_value = 90.4

[[record]]
compound = "CN1CCN(c2ccc(Nc3ncc(Cl)c(Nc4ccc5cn[nH]c5c4)n3)cc2)CC1 [Compound 3b]"
data_value = 95.1

[[record]]
compound = "Cc1cnc(Nc2ccc(C(=O)N3CCN(C)CC3)cc2)nc1Nc1ccc2cn[nH]c2c1 [Compound 6m]"
data_value = 81

[[record]]
compound = "CN1CCN(c2ccc(Nc3ncc(C(F)(F)F)c(Nc4ccc5cn[nH]c5c4)n3)cc2)CC1 [Compound 3c]"
data_value = 84.2

[[record]]
compound = "Cc1cnc(Nc2ccc(N3CCN(C)CC3)cc2)nc1Nc1ccc2c(c1)CCCC2 [Compound 5g]"
data_value = 89.2

[[record]]
compound = "COc1cnc(Nc2ccc(N3CCN(C)CC3)cc2)nc1Nc1ccc2cn[nH]c2c1 [Compound 3e]"
data_value = 54.3


----------
# measured on: PDGFRβ (Homo sapiens (Human), UniProt P09619)
# Sequence (P09619 33-1106): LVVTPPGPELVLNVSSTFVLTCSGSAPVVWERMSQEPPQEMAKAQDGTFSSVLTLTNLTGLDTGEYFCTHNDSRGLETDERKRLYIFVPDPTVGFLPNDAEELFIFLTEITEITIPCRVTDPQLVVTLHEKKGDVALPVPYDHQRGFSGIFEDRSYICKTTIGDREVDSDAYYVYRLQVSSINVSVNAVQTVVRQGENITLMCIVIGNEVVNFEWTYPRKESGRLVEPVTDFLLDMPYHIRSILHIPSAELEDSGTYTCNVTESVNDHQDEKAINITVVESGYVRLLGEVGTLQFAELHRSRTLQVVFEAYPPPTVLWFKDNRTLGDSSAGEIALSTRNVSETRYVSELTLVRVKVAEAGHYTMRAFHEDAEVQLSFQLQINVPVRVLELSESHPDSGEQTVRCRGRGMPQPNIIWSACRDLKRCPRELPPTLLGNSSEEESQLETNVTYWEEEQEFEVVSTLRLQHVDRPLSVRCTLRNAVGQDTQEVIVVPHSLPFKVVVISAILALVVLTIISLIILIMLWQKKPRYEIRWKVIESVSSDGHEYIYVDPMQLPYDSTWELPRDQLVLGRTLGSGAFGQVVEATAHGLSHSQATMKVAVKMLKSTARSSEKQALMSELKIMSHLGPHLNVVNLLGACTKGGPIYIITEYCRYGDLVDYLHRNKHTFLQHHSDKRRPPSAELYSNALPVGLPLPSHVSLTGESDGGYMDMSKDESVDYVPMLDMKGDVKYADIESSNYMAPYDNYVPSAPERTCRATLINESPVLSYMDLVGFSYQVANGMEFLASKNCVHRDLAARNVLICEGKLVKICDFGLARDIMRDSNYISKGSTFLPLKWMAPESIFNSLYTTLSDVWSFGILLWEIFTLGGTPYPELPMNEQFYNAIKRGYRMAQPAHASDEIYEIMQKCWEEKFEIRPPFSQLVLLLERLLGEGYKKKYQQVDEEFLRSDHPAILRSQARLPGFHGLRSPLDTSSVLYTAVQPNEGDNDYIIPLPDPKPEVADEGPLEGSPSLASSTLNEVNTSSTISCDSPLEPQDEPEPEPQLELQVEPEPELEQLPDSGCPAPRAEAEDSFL
# test details: Caliper Mobility Shift kinase inhibition test
# Type: biochemical
# applied conditions: 100 nM; read-out: inhibitory rate on PDGFR-β
Recorded inhibition at 0.1 µM for the following compounds
quantity name: inhibition at 0.1 µM (%)

[[record]]
compound = "COc1cc(N2CCN(C)CC2)ccc1Nc1ncc(C)c(Nc2ccc3cn[nH]c3c2)n1"
unit_string = "%"
data_value = 63.4

[[record]]
compound = "Cc1cnc(Nc2ccc(N3CCN(C)CC3)cc2)nc1Nc1ccc2c(cnn2C)c1"
unit_string = "%"
data_value = 79.2

[[record]]
compound = "CCN1CCN(c2ccc(Nc3ncc(C)c(Nc4ccc5cn[nH]c5c4)n3)c(OC)c2)CC1"
unit_string = "%"
data_value = 80.2

[[record]]
compound = "Cc1ccc(Nc2nccc(N(C)c3ccc4c(C)n(C)nc4c3)n2)cc1S(N)(=O)=O [Pazopanib, reference compound]"
unit_string = "%"
data_value = 76.7

[[record]]
compound = "COc1cc(N2CCC(N3CCN(C)CC3)CC2)ccc1Nc1ncc(C)c(Nc2ccc3cn[nH]c3c2)n1"
unit_string = "%"
data_value = 76.4


----------
# Tested on: human brain microvascular endothelial cells (HCMEC/D3)
# test details: MTT assay on human neovascular cells
# Assay type: cell-based
# applied conditions: Homo sapiens, hCMEC/D3; MTT; read-out: Inhibitory activity (IC50) HCMEC-D3
quantity name: IC50 (µM)

[[record]]
compound = "CCN1CCN(c2ccc(Nc3ncc(C)c(Nc4ccc5cn[nH]c5c4)n3)cc2OC)CC1"
unit_string = "µM"
data_value = 0.23

[[record]]
compound = "CNC(=O)c1cc(Oc2ccc(NC(=O)Nc3ccc(Cl)c(C(F)(F)F)c3)cc2)ccn1 [Sorafenib, reference compound]"
unit_string = "µM"
data_value = 6.32

[[record]]
compound = "Cc1[nH]c(/C=C2\\C(=O)Nc3ccc(F)cc32)c(C)c1C(=O)N[C@H]1CCN(C(=O)N(C)C)C1 [Vorolanib, reference compound]"
unit_string = "µM"
data_value = 34.3

